Test system: endothelial cells
Assay: LIVE/DEAD calcein/ethidium bromide assay, endothelial cell kill rate
Type: cell-based, human
Conditions: percentage in brackets
The compounds listed here are annotated with their Endothelial, relative kill rate rated against the adipocyte kill rate.
Please state the figure in %; there is no need to write the unit.

Record excerpt, results attached:
O=C(O)[C@H]1Cc2c([nH]c3ccccc23)[C@@H](c2ccc(O)cc2O)N1 [Compound 78] ... 33
Brc1ccc2[nH]ccc2c1 [Compound 38, 5-bromo-1H-indole] ... 50
c1ccc2[nH]ccc2c1 [Compound 33, 1H-indole] ... 56

Give the reported Endothelial, relative kill rate rated against the adipocyte kill rate for this compound. O=Cc1cc2ccccc2[nH]1 [Compound 2, 1H-indole-2-carbaldehyde] 32

Give the reported Endothelial, relative kill rate rated against the adipocyte kill rate for this compound. O=Cc1cccc2[nH]ccc12 [Compound 5, 1H-indole-4-carbaldehyde] 44

Give the reported Endothelial, relative kill rate rated against the adipocyte kill rate for this compound. O=C(O)Cc1c[nH]c2ccc(Br)cc12 [Compound 41, 2-(5-bromo-1H-indol-3-yl) acetic acid] 30

Give the reported Endothelial, relative kill rate rated against the adipocyte kill rate for this compound. O=C(O)c1cc2cc(Br)ccc2[nH]1 [Compound 40, 5-bromo-1H-indole-2-carboxylic acid] 33

Give the reported Endothelial, relative kill rate rated against the adipocyte kill rate for this compound. O=Cc1c[nH]c2c3c(ccc12)CCC3 [Compound 7] 35

Give the reported Endothelial, relative kill rate rated against the adipocyte kill rate for this compound. O=Cc1cccc2cc[nH]c12 [Compound 4, 1H-indole-7-carbaldehyde] 63

Give the reported Endothelial, relative kill rate rated against the adipocyte kill rate for this compound. O=Cc1c[nH]c2cccc(OCc3ccccc3)c12 [Compound 43, 4-(benzyloxy)-1H-indole-3-carbaldehyde] 27
